Here, each record is paired with measured TGI data.
Test system: T-47D breast
Test name: NCI tumour cell line growth inhibition, 48 h
Metric name: TGI

>>> observed_result("CNC(=O)Nn1c(SC)nc2ccccc21")
"> 100 µM"
>>> observed_result("O=C(/C=C/c1cccnc1)c1ccccc1")
"28.6 µM"
>>> observed_result("CCOc1ccc(-n2c(=O)c3nn4c(=O)n(-c5ccc(OCC)cc5)c(=O)c4nn3c2=O)cc1")
"> 100 µM"
>>> observed_result("Clc1ccc(-c2cn3c(nc4ccccc43)c(/C=C/c3cccs3)n2)cc1")
"> 100 µM"
>>> observed_result("Cc1ccc(C)n1-n1c(Cc2ccc(Cl)cc2)n[nH]c1=O")
"> 100 µM"
>>> observed_result("COc1ccc(NS(=O)(=O)c2ccc3ncn(NS(=O)(=O)c4ccc(I)cc4)c(=O)c3c2)cc1")
"> 100 µM"

* * *

Test system: SR leukemia
Test name: NCI tumour cell line growth inhibition, 48 h
Metric name: TGI (µM)

>>> observed_result("COc1ccc(-c2nc(Nc3ccc(F)cc3)nc(Nc3ccc4c(c3)nc(C)n4Cc3ccccc3)n2)cc1")
47.8
>>> observed_result("Cc1ccc(NC(=O)C23CC4CC(CC(C4)C2)C3)c(C(=O)NNC(=O)c2ccc(Cl)cc2)c1")
30.1

* * *

Tested on: OVCAR-3 ovarian
Test name: NCI tumour cell line growth inhibition, 48 h; in the data active = GI50 below about 0.43 µM; inactive = the rest
Outcomes: active, inactive

>>> class_label("CC(=O)NS(=O)(=O)c1ccc(-n2nc(-c3ccccc3)cc2-c2cc(O)ccc2O)cc1")
"inactive"
>>> class_label("Nc1n[nH]c2ccc([C@H]3[C@@H]4C5CCC(C5)[C@@H]4c4c(ccc5[nH]ncc45)N3S(=O)(=O)C3CC3)cc12 (stereo partly drawn)")
"active"
>>> class_label("O=C1/C(=C\\c2ccc(Cl)cc2)CN(C(=O)c2ccccc2)C/C1=C\\c1ccc(Cl)cc1")
"inactive"
>>> class_label("COc1c(O)cc2c(c1CC=C(C)C)OC(=O)c1c(cc(O)c(CC=C(C)C)c1O)O2")
"inactive"
>>> class_label("CO[C@@H]1[C@H](N(C)C(=O)c2ccccc2)C[C@@H]2O[C@]1(C)n1c3ccccc3c3c4c(c5c6ccccc6n2c5c31)C(=O)NC4=O")
"inactive"
>>> class_label("COc1ccc(-c2cc(=O)c3cc4c(cc3[nH]2)OCO4)c(OC)c1")
"inactive"
>>> class_label("Cl.Fc1c[c-]c(-c2ccccn2)c(F)c1.[Pt].c1ccc([PH+](c2ccccc2)c2ccccc2[PH+](c2ccccc2)c2ccccc2)cc1")
"active"
>>> class_label("CN(CCNc1ccc(C(=N)N)cc1)c1ccc(C(=N)N)cc1")
"inactive"

* * *

Here, each record is paired with measured GI50 data.
Tested on: SW-620 colon
Test name: NCI tumour cell line growth inhibition, 48 h
Metric name: GI50

>>> observed_result("COc1ncnn2ccc(-c3cnc4nc(C)n(Cc5nnc(C(C)F)o5)c4c3)c12 (centres undefined)")
"0.0511 µM"
>>> observed_result("CN1CCN(C(=O)OCc2nc3c(N4CCOCC4)nc(-c4ccccc4)nc3n2C)CC1")
"0.329 µM"
>>> observed_result("O=C([CH-]C(=O)c1ccccc1)c1ccccc1.O=C([CH-]C(=O)c1ccccc1)c1ccccc1.[CH2-]CCC.[CH2-]CCC.[Sn+4]")
"0.133 µM"
>>> observed_result("CCOC(=O)Nc1ccc2c3c(cccc13)-c1ccccc1-2")
"3.92 µM"
>>> observed_result("Fc1ccc(-c2nn3c(COc4ccccc4Cl)nnc3s2)cc1Oc1ccccc1")
"> 100 µM"
>>> observed_result("COc1cc2c3c(n(CCCNC(C)(C)CO)c(=O)c2cc1OC)-c1cc2c(cc1C3=O)OCO2")
"0.25 µM"
>>> observed_result("O=C(NCCNc1nccc(-c2c(-c3ccc(F)cc3)nc3sccn23)n1)Nc1cccc(C(F)(F)F)c1")
"13.6 µM"
>>> observed_result("O=C(O)c1ccc(NCn2nc(-c3ccccc3O)oc2=S)cc1O")
"41.9 µM"
>>> observed_result("COc1cc2cc(Oc3ccc(NC(=O)Nc4ccc(F)c(C(F)(F)F)c4)cc3)c(C)nc2cc1OCCN1CCOCC1")
"3.34 µM"

* * *

Test system: HCC-2998 colon
Test name: NCI tumour cell line growth inhibition, 48 h
Here, each record is paired with measured GI50 data.
Metric name: GI50

>>> observed_result("O=C(O)c1ccc(NCn2nc(-c3ccccc3O)oc2=S)cc1O")
"> 100 µM"
>>> observed_result("COc1cc2cc(Oc3ccc(NC(=O)Nc4ccc(F)c(C(F)(F)F)c4)cc3)c(C)nc2cc1OCCN1CCOCC1")
"5.34 µM"
>>> observed_result("CCOC(=O)Cc1csc(Nc2nc(O)c(C3=c4ccccc4=NC3=O)s2)n1")
"29.8 µM"
>>> observed_result("COc1ccc(-c2nc(Nc3ccc(F)cc3)nc(Nc3ccc4c(c3)nc(C)n4Cc3ccccc3)n2)cc1")
"5.85 µM"
>>> observed_result("COc1c(O)cc2c(c1CC=C(C)C)OC(=O)c1c(cc(O)c(CC=C(C)C)c1O)O2")
"2.56 µM"

* * *

Test system: SN12C renal
Test name: NCI tumour cell line growth inhibition, 48 h
Here, each record is paired with measured TGI data.
Metric name: TGI

>>> observed_result("COc1ccc(C(=O)/C=C/c2ccc(OCC(=O)N3CCN(c4ccccc4)CC3)cc2)cc1OC")
"> 10 µM"
>>> observed_result("COc1c(O)cc2c(c1CC=C(C)C)OC(=O)c1c(cc(O)c(CC=C(C)C)c1O)O2")
"7.37 µM"
>>> observed_result("CCc1nc2c(n1CC)C(=O)c1ccccc1C2=O")
"> 100 µM"
>>> observed_result("CCOC(=O)c1ccc(N(C)Cc2cnc3nc(N)nc(N)c3n2)cc1")
"> 100 µM"
>>> observed_result("COc1cc(C2SC(N)=Nc3c2c(C)nn3C(=O)Cc2ccccc2)cc(OC)c1OC (stereo not drawn)")
"> 100 µM"
>>> observed_result("COc1ccc(/C=C/C(=O)c2ccc(B(O)O)cc2)cc1O")
"> 77.7 µM"
>>> observed_result("Nc1ccc(N=Nc2ccc(-c3ccc(N=Nc4c(S(=O)(=O)O)cc5cc(S(=O)(=O)O)c(N=Nc6ccc([N+](=O)[O-])cc6)c(N)c5c4O)cc3)cc2)c2cc(S(=O)(=O)O)ccc12")
"> 100 µM"
>>> observed_result("Oc1c(CCl)cc(Cl)cc1Cc1cc(Cl)cc(Cc2cc(Cl)cc(CCl)c2O)c1O")
"8.79 µM"
>>> observed_result("Cc1ccc(NC(=O)C23CC4CC(CC(C4)C2)C3)c(C(=O)NNC(=O)c2ccc(Cl)cc2)c1")
"> 100 µM"
>>> observed_result("C=CC[C@H](O)[C@@](NC(=O)OCc1ccccc1)(Sc1ccc(C)cc1)C(F)(F)F")
"45.8 µM"
>>> observed_result("O=C1NC(=S)NC1C(Cc1ccccc1)c1ccco1 (stereo not drawn)")
"> 100 µM"
>>> observed_result("CC12CCC3C(CCC4(O)C=CCCC34C=O)C1(O)CC(O)C2c1ccc(=O)oc1 (stereo not drawn)")
"0.199 µM"
>>> observed_result("CCN(CC)CCOc1ccc(N2Cc3cc(OC)c(OC)cc3C2=O)cc1")
"> 100 µM"
>>> observed_result("O=c1cc(CN2CCCCC2)[nH]c2c1ccc1nc(CN3CCCCC3)cc(=O)n12")
"> 100 µM"
>>> observed_result("[N-]=[N+]=NCC(=O)c1c[nH]c(=O)[nH]c1=O")
"> 100 µM"
>>> observed_result("CC1=CC=C2C(C)(C)CC[C@@H]3OC(=O)[C@H]1[C@]23C")
"> 100 µM"
>>> observed_result("CSc1nc(SC)c2c(C)cn(Cc3ccccc3)c2n1")
"> 100 µM"
>>> observed_result("COc1cc(CN(C)N2C(=O)c3cccc4cc([N+](=O)[O-])cc(c34)C2=O)cc(OC)c1OC")
"> 100 µM"
>>> observed_result("O=C(NCCCNc1cc(-c2cn(-c3ccccc3)nc2-c2cccc(O)c2)ccn1)c1ccc(F)cc1")
"30.8 µM"
>>> observed_result("Fc1ccc(-c2nn3c(COc4ccccc4Cl)nnc3s2)cc1Oc1ccccc1")
"56.6 µM"
>>> observed_result("CCOC(=O)c1sc2c(c1OC(=O)c1ccc(Cl)cc1Cl)c(=O)n(-c1ccccc1)c(=S)n2-c1ccccc1")
"22.6 µM"
>>> observed_result("COc1cc(/C=C2\\N=C(c3ccccc3)N(c3ccc4c(c3)Sc3cc(N5C(=O)/C(=C/c6cc(OC)c(OC)c(OC)c6)N=C5c5ccccc5)ccc3N4)C2=O)cc(OC)c1OC")
"51 µM"
>>> observed_result("O=c1n(Cc2ccccc2)c2ccccc2n1CC1CS1 (stereo not drawn)")
"> 100 µM"
>>> observed_result("CO[C@@H]1[C@H](N(C)C(=O)c2ccccc2)C[C@@H]2O[C@]1(C)n1c3ccccc3c3c4c(c5c6ccccc6n2c5c31)C(=O)NC4=O")
"> 100 µM"
>>> observed_result("NC(=S)Nc1c(S(N)(=O)=O)cc(S(N)(=O)=O)c(Cl)c1Cl")
"> 100 µM"
>>> observed_result("COc1ncnn2ccc(-c3cnc4nc(C)n(Cc5nnc(C(C)F)o5)c4c3)c12 (stereo not drawn)")
"> 58.1 µM"
>>> observed_result("CC(C)c1ccc2c(c1)CCC1C(C)(CN)CCCC21C (stereo not drawn)")
"3.16 µM"
>>> observed_result("CC(=O)OC12c3ccccc3C(c3ccccc31)C1C(=O)N(Nc3ccccc3)C(=O)C12 (stereo not drawn)")
"> 100 µM"
>>> observed_result("COCN1C(=O)[C@@H]2CCCN2C(=O)c2ccc(Cl)cc21")
"> 100 µM"
>>> observed_result("CN1CCC2(CC1)C(=O)N(NC(N)=O)C(=O)C2c1ccccc1 (stereo not drawn)")
"> 100 µM"
>>> observed_result("CCOC(=O)Nc1ccc2c3c(cccc13)-c1ccccc1-2")
"> 100 µM"
>>> observed_result("CN1CCN(C(=O)OCc2nc3c(N4CCOCC4)nc(-c4ccccc4)nc3n2C)CC1")
"2.12 µM"
>>> observed_result("CCCc1c(O)c2ccccc2[nH]c1=O")
"> 100 µM"
>>> observed_result("c1ccc(C2C3=C(c4ccccc4CC3)N3c4cc5nc6ccccc6nc5cc4NC34CCCCC24)cc1 (stereo not drawn)")
"> 10 µM"
>>> observed_result("Brc1ccc(N=C/C=C(\\Nc2ccc(Br)cc2)C23CC4CC(CC(C4)C2)C3)cc1")
"> 64.2 µM"
>>> observed_result("CCOc1ccc(-n2c(=O)c3nn4c(=O)n(-c5ccc(OCC)cc5)c(=O)c4nn3c2=O)cc1")
"> 100 µM"
>>> observed_result("Cc1ccc(NC(=O)CC2SC(=Nc3cccc(Cl)c3C)NC2=O)cc1 (stereo not drawn)")
"> 100 µM"
>>> observed_result("CC(C)[C@]12O[C@H]1[C@@H]1O[C@]13[C@]1(O[C@H]1C[C@H]1C4=C(CC[C@@]13C)C(=O)OC4)[C@@H]2OC(=O)OC(C)(C)C")
"> 100 µM"

Source listed as PubChem BioAssay (NCI).
